- experiment_summary: PK analysis in mice
- Type: in vivo
- settings: C57BL/6, mouse, plasma, iv; mice, 7 mg/kg, once
- Experimental: To further characterize the compound, a PK analysis was performed in mice. Briefly, mice were injected with 34 (i.v., 7 mg/kg, once) and serial blood sampling was performed. All animal experiments observe the regulations in Italy (D.M. 116192) as well as the EU regulations (O.J. of E.C. L 358/1 12/18/1986). Compound 34 was injected i.v. at a dose of 7 mg/kg in C57BL/6 mice. […] Aliquots of plasma samples were analyzed as previously reported.[16] […]
measurement_kind: Cmax (ng/mL)
Output spec: scalar in ng/mL, unitless text.

INPUT: What value of Cmax has been reported for the following compound? COc1cccc(-c2ccc(-n3cc(-c4cccc(C(=O)O)c4)nn3)cc2)c1OC
OUTPUT: 16800

###

- experiment_summary: PK analysis in mice
- Assay type: in vivo
- settings: C57BL/6, mouse, plasma, iv; mice, i.v., 7 mg/kg, once; read-out: half-life (t1/2) (converted)
measurement_kind: half-life (h)
Quick note: give the figure in h, leave out the unit.

INPUT: Value lookup for half-life; key = COc1cccc(-c2ccc(-n3cc(-c4cccc(C(=O)O)c4)nn3)cc2)c1OC
OUTPUT: 3.21

###

- experiment_summary: PK analysis in mice
- Format: in vivo
- settings: C57BL/6, mouse, plasma, iv; mice, i.v., 7 mg/kg, once; read-out: clearance (Cl) (converted)
measurement_kind: clearance at 24 h (mL/min/kg)
Please respond with the number in mL/min/kg and leave the unit unwritten.

INPUT: Item COc1cccc(-c2ccc(-n3cc(-c4cccc(C(=O)O)c4)nn3)cc2)c1OC has what recorded clearance at 24 h?
OUTPUT: 8.33

###

- experiment_summary: Thermodynamic aqueous solubility and solubility in in vivo vehicles
- Type: physicochemical
- settings: thermodynamic, deionized water, 25 °C overnight; biphenyl triazoles as sodium salts; read-out: H2O solubility
measurement_kind: solubility (µg/mL)
Give the value, in units of µg/mL, as a plain number.

INPUT: State the recorded solubility for this entry: COc1cccc(-c2ccc(-n3cc(-c4cccc(C(=O)O)c4)nn3)cc2)c1OC
OUTPUT: 1530

###

- experiment_summary: PK analysis in mice
- Type: in vivo
- settings: C57BL/6, mouse, plasma, intravenous; Table S6, single administration, e.v., 7 mg/kg, n=5
measurement_kind: Tmax
State the value with its unit after it.

INPUT: Look up Tmax: COc1cccc(-c2ccc(-n3cc(-c4cccc(C(=O)O)c4)nn3)cc2)c1OC
OUTPUT: 12 min

###

- experiment_summary: PK analysis in mice
- Format: in vivo
- settings: C57BL/6, mouse, plasma, intravenous; Table S6, single administration, e.v., 7 mg/kg, n=5
measurement_kind: Cmax (ng/mL)
The reply should contain only the number, in ng/mL.

INPUT: Form field: reported Cmax of COc1cccc(-c2ccc(-n3cc(-c4cccc(C(=O)O)c4)nn3)cc2)c1OC
OUTPUT: 16800

###

Each entry below carries its recorded inhibition at 10 µM.
- System: SOCE
- experiment_summary: SOCE inhibition in HEK cells by fluorescence microscopy (calcium imaging)
- Assay type: cell-based, human
- settings: Homo sapiens, HEK293, HEK cells, 10 μM; negative value = increased Ca2+ entry vs control
Give just the numeric value; % need not be written.

Observe how each entry below is paired with its result.
{"columns": ["compound", "inhibition at 10 µM [%]"],
 "data": [
  ["COc1ccc(OC)c(-c2ccc(-n3cc(-c4ccccn4)nn3)cc2)c1", 0],
  ["COc1ccc(OC)c(-c2ccc(NC(=O)c3ccncc3F)cc2)c1 [Synta66, reference compound]", 90.8],
  ["COc1ccc(OC)c(-c2ccc(-n3cc(-c4ccncc4)nn3)cc2)c1", -12.8]
]}

Now turn to the next compound.
INPUT: Which inhibition at 10 µM is listed for COc1ccc(OC)c(-c2ccc(-n3cc(-c4cccnc4)nn3)cc2)c1 ?
OUTPUT: -14
